Here the recorded pKi is given for each entry.
Target: adenosine A2A receptor (Homo sapiens, UniProt P29274)
Sequence (P29274 whole entry): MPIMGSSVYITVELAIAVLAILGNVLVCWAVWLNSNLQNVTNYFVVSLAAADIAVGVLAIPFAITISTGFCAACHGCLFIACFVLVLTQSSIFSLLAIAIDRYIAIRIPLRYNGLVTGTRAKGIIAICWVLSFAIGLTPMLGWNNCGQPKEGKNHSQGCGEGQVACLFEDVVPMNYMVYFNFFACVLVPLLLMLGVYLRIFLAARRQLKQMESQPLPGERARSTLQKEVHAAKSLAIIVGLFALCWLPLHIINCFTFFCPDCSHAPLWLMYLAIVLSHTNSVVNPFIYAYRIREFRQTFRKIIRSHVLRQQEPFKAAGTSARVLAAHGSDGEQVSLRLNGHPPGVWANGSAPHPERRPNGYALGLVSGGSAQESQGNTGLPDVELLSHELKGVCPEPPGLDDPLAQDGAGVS
Where a name gives a salt, the structure may show the parent alone.
For clarity, pKi is expressed as the negative log10 of concentration in mol/L.

COMPOUND	STUDY_TARGET	OBSERVED_RESULT
O=C(CO)N[C@H]1C[C@@H](n2cnc3c(NCC(c4ccccc4)c4ccccc4)nc(C(=O)NCCNC(=O)NC4CCN(c5ccccn5)CC4)nc32)[C@H](O)[C@@H]1O [Example 14, trifluoroacetate]	adenosine A2A receptor (Homo sapiens, UniProt P29274)	8.60

input: Recall the recorded pKi for CCC(=O)N[C@H]1C[C@@H](n2cnc3c(NCC(c4ccccc4)c4ccccc4)nc(N4CC[C@@H](NC(=O)Nc5ccc(OCc6ccccc6)cc5)C4)nc32)[C@H](O)[C@@H]1O [Example 178, trifluoroacetate] with adenosine A2A receptor (Homo sapiens, UniProt P29274) and state it.
output: 8.10

input: API: value(readout=pKi, system=adenosine A2A receptor (Homo sapiens, UniProt P29274)) for record CCC(=O)N[C@H]1C[C@@H](n2cnc3c(NCC(c4ccccc4)c4ccccc4)nc(N4CC[C@@H](NC(=O)NCc5ccncc5)C4)nc32)[C@H](O)[C@@H]1O [Example 20, trifluoroacetate]
output: 8.80

input: Param readout= pKi; system= adenosine A2A receptor (Homo sapiens, UniProt P29274); entry= N[C@@H]1CCN(c2nc(NCC(c3ccccc3)c3ccccc3)c3ncn([C@@H]4C[C@H](NC(=O)CO)[C@@H](O)[C@H]4O)c3n2)C1 [Example 1, trifluoroacetate] ; returns value.
output: 8.08
